Method: Pharmacokinetic study in SD male rats
Type: in vivo, rat
Details: Sprague-Dawley, rat, plasma, oral, 10 mg/kg, n = 3, mean ± SD
Experimental: Each test compound at a dose of 10 mg/kg was administered intravenously or orally to male Sprague-Dawley (SD) rats. […] After vortex-shaking and centrifugation at 10,000 rpm for 10 min, 5 µL of the supernatant was analysed by LC-MS/MS [HP1100® HPLC system (Agilent, Santa Clara, CA) combined with API3200® triple-quadrupole mass spectrometer (Applied Biosystems-SCIEX, Concord, Canada)]. […]
Quantity Kind: AUC(0-inf) (ng·h/mL)

[A] CCOc1ccc(-n2c(SCC(=O)NCc3ccccc3)nc3sc4c(c3c2=O)CCN(C(C)=O)C4)cc1 [Compound 31]
[B] CCOc1ccc(-n2c(SCC(=O)N3CCN(c4ccccc4)CC3)nc3sc4c(c3c2=O)CCN(C(C)=O)C4)cc1 [Compound 44]
Identify the entry with the smaller AUC(0-inf): A or B . Your answer should be the label attached to the chosen record.
A
(A: 443 ng·h/mL, B: 10200 ng·h/mL)

====

Method: Pharmacokinetic study in SD male rats
Format: in vivo, rat
Details: Sprague-Dawley, rat, plasma, intravenous, 10 mg/kg, n = 3
Quantity Kind: clearance (mL/min/kg)

[I] CCOc1ccc(-n2c(SCC(=O)NCc3ccccc3)nc3sc4c(c3c2=O)CCN(C(C)=O)C4)cc1
[II] CCOc1ccc(-n2c(SCC(=O)N3CCN(c4ccccc4)CC3)nc3sc4c(c3c2=O)CCN(C(C)=O)C4)cc1
Identify the entry with the smaller clearance: I or II . Your answer should be the label attached to the chosen record.
II

====

Method: Pharmacokinetic study in SD male rats
Assay type: in vivo, rat
Details: Sprague-Dawley, rat, plasma, intravenous, 10 mg/kg, n = 5, Table S3
Quantity Kind: AUC(0-inf) (ng·h/mL)
State the answer as a number, implicitly in ng·h/mL.

GET /values?readout=AUC(0-inf)&item= "CCOc1ccc(-n2c(SCC(=O)Nc3ccc(OC)c(OC)c3)nc3sc4c(c3c2=O)CCN(C(C)=O)C4)cc1"
6030

====

Target Or System: CYP1A2 (Homo sapiens, UniProt P05177)
Construct: purchased Invitrogen, Madison, WI, USA
Sequence (P05177 2-516 limits assumed): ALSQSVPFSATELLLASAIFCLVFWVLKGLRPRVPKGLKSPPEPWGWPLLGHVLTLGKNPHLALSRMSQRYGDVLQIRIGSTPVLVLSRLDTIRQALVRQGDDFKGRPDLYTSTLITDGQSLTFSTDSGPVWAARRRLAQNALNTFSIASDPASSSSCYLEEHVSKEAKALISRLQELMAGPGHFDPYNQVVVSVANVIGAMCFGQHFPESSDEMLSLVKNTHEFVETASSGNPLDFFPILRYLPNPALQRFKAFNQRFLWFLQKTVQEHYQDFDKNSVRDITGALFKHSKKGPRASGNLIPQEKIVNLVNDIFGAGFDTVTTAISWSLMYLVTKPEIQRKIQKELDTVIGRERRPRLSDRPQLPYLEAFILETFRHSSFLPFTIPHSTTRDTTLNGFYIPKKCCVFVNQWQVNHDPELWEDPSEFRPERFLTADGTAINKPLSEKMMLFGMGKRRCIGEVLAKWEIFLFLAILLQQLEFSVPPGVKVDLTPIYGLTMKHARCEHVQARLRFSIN
Method: CYP inhibition assay (Vivid CYP450 screening kit)
Format: in vitro ADME
Details: 10 μM compound
Quantity Kind: CYP450 (% remaining Activity at 10 μM) CYP1A2 (%)

Solved entries:
CCOc1ccc(-n2c(SCC(=O)NCc3ccc(C)cc3)nc3sc4c(c3c2=O)CCN(C(C)=O)C4)cc1 :: 123.6
CCCCN(CCCC)C(=O)CSc1nc2sc3c(c2c(=O)n1-c1ccc(OCC)cc1)CCN(C(C)=O)C3 :: 103.0

[I] CCOc1ccc(-n2c(SCC(=O)Nc3ccc(OC)c(OC)c3)nc3sc4c(c3c2=O)CCN(C)C4)cc1
[II] CCOc1ccc(-n2c(SCC(=O)N(C)Cc3ccccc3)nc3sc4c(c3c2=O)CCN(C(C)=O)C4)cc1
[III] CCOc1ccc(-n2c(SCC(=O)N3CCC(Cc4ccccc4)CC3)nc3sc4c(c3c2=O)CCN(C(C)=O)C4)cc1
Sort (3 compounds) by CYP450 (% remaining Activity at 10 μM) CYP1A2: min first. Present the labels in the sequence the task asks for.
I, III, II

====

Method: Pharmacokinetic study in SD male rats
Assay type: in vivo, rat
Details: Sprague-Dawley, rat, plasma, oral, 10 mg/kg, n = 3, range in brackets
Quantity Kind: Tmax (h)

[P] CCOc1ccc(-n2c(SCC(=O)N3CCN(c4ccccc4)CC3)nc3sc4c(c3c2=O)CCN(C(C)=O)C4)cc1 [Compound 44]
[Q] CCOc1ccc(-n2c(SCC(=O)NCc3ccccc3)nc3sc4c(c3c2=O)CCN(C(C)=O)C4)cc1 [Compound 31]
Task for the reader: decide whether P or Q has the larger Tmax. Your answer should be the label attached to the chosen record.
P

====

Below: a set of entries, each annotated with reported viability at 24 h, 5 µM.
Method: MTT assay: HT22 cell viability with compound alone
Assay type: cell-based, mouse
Details: mouse, HT22 cells; HT22 cell viability after 24 h of treatment with 5 μM compound, no Aβ
State the answer as a number, implicitly in %.

CCOc1ccc(-n2c(SCC(=O)NC3CCN(C)CC3)nc3sc4c(c3c2=O)CCN(C(C)=O)C4)cc1 :: 98

GET /values?readout=viability at 24 h, 5 µM&item= "CCOc1ccc(-n2c(SCC(=O)NCc3ccc(C)cc3)nc3sc4c(c3c2=O)CCN(C)C4)cc1"
107

What about "CCOc1ccc(-n2c(SCC(=O)NCc3ccc(Cl)cc3)nc3sc4c(c3c2=O)CCN(C(C)=O)C4)cc1" ?
97

What about "CCOc1ccc(-n2c(SCC(=O)NCCN3CCCCC3)nc3sc4c(c3c2=O)CCN(C(C)=O)C4)cc1" ?
71

====

Method: Pharmacokinetic study in SD male rats
Format: in vivo, rat
Details: Sprague-Dawley, rat, plasma, oral, 10 mg/kg, n = 3
Quantity Kind: Cmax (µg/mL)

[1] CCOc1ccc(-n2c(SCC(=O)N3CCN(c4ccccc4)CC3)nc3sc4c(c3c2=O)CCN(C(C)=O)C4)cc1
[2] CCOc1ccc(-n2c(SCC(=O)NCc3ccccc3)nc3sc4c(c3c2=O)CCN(C(C)=O)C4)cc1
Task for the reader: decide whether 1 or 2 has the larger Cmax. Your answer should be the label attached to the chosen record.
1
(1: 2.11 µg/mL, 2: 0.04 µg/mL)

====

Target Or System: CYP2C9 (Homo sapiens)
Construct: purchased Invitrogen, Madison, WI, USA
Sequence (P11712 whole entry): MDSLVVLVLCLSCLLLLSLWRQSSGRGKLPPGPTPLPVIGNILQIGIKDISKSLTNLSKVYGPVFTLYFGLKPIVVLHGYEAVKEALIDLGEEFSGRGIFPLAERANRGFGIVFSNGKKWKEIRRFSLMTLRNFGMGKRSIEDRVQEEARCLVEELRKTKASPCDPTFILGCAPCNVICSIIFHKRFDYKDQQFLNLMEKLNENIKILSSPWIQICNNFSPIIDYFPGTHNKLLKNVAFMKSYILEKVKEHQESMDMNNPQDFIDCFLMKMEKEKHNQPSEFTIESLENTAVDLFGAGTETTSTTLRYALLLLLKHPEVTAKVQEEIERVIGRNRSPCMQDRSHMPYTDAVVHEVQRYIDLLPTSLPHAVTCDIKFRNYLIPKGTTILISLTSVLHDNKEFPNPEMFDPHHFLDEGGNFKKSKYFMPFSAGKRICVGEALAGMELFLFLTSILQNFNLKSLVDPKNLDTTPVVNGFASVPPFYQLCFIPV
Method: CYP inhibition assay (Vivid CYP450 screening kit)
Type: in vitro ADME
Details: 10 μM compound
Quantity Kind: CYP450 (% remaining Activity at 10 μM) CYP2C9 (%)

Solved entries:
CCOc1ccc(-n2c(SCC(=O)N3CCC(c4ccccc4)CC3)nc3sc4c(c3c2=O)CCN(C(C)=O)C4)cc1 [Compound 46] :: 6.7
CCCN(CCC)C(=O)CSc1nc2sc3c(c2c(=O)n1-c1ccc(OCC)cc1)CCN(C(C)=O)C3 [Compound 39] :: 61.0

[I] CCOc1ccc(-n2c(SCC(=O)NCc3ccccc3)nc3sc4c(c3c2=O)CCN(C)C4)cc1 [Compound 49]
[II] CCOc1ccc(-n2c(SCC(=O)Nc3ccc(Cl)cc3)nc3sc4c(c3c2=O)CCN(C(C)=O)C4)cc1 [Compound 35]
Task for the reader: decide whether I or II has the larger CYP450 (% remaining Activity at 10 μM) CYP2C9. Your answer should be the label attached to the chosen record.
I

====

Target Or System: CYP1A2 (Homo sapiens)
Construct: purchased Invitrogen, Madison, WI, USA
Sequence (P05177 2-516 limits assumed): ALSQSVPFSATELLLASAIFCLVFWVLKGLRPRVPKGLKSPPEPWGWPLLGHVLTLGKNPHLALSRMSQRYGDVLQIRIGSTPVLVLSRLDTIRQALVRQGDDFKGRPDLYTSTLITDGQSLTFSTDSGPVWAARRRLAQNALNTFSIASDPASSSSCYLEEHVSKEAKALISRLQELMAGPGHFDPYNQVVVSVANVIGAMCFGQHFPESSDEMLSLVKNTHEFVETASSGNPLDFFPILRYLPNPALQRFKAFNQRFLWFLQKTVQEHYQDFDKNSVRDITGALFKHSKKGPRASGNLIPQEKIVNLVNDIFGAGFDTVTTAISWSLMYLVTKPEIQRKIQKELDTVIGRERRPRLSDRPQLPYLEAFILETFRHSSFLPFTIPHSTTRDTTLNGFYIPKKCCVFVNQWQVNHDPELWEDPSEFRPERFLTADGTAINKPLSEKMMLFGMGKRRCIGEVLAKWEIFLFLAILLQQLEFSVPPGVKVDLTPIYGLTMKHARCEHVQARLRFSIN
Method: CYP inhibition assay (Vivid CYP450 screening kit)
Assay type: in vitro ADME
Details: 10 μM compound
Quantity Kind: CYP450 (% remaining Activity at 10 μM) CYP1A2 (%)

Solved entries:
CCOc1ccc(-n2c(SCC(=O)NC3CCN(C)CC3)nc3sc4c(c3c2=O)CCN(C(C)=O)C4)cc1 :: 119.7
CCOc1ccc(-n2c(SCC(=O)N3CCC(c4ccccc4)CC3)nc3sc4c(c3c2=O)CCN(C(C)=O)C4)cc1 :: 84.4
CCOc1ccc(-n2c(SCC(=O)N3CCN(Cc4ccccc4)CC3)nc3sc4c(c3c2=O)CCN(C(C)=O)C4)cc1 :: 110.5
CCOc1ccc(-n2c(SCC(=O)N(C)Cc3ccccc3)nc3sc4c(c3c2=O)CCN(C)C4)cc1 :: 97.3

[A] CCCN(CCC)C(=O)CSc1nc2sc3c(c2c(=O)n1-c1ccc(OCC)cc1)CCN(C)C3
[B] CCOc1ccc(-n2c(SCC(=O)NCc3ccc(Cl)cc3)nc3sc4c(c3c2=O)CCN(C)C4)cc1
Identify the entry with the smaller CYP450 (% remaining Activity at 10 μM) CYP1A2: A or B . Your answer should be the label attached to the chosen record.
A
